src = PubChem BioAssay (NCI)

Please provide measured growth for the entries that follow.
# System: OVCAR-5 ovarian
# Test Name: NCI-60 one-dose screen, 48 h (100 = growth as untreated, 0 = no growth, -100 = all killed)
# Condition Details: 10 µM unless noted
This is part of a sample that, as a whole, favours compounds with a hit. Of some 83,000 tested, about 20% had one in any assay. Calls of active or inactive are those of the source. The calls were made as follows: active = growth percent below 10; inactive = the rest.

// batch mode: one growth value per listed entry
1. CCOC(=O)C1CSC(C)(C(=O)OCC)N1 (stereo not given)
2. O=[N+]([O-])c1ccc(NS(=O)(=O)c2ccccc2)c2ccccc12
3. CCn1c(SCC(=O)c2ccc(Br)cc2)nnc1-c1cc2c([nH]c3ccccc32)c(-c2cccc(O)c2)n1
4. O=C1/C(=C/c2cccc3cnccc23)Cc2cc(F)ccc21
5. Nc1c(C(=O)O)[nH]c(=O)[nH]c1=O
6. COc1ccc(-c2cc(-c3nnc(SC/C(=N\O)c4ccccc4)n3-c3ccccc3)c3ccccc3n2)cc1

Completion:
98.2% (inactive)
84.4% (inactive)
95.1% (inactive)
108% (inactive)
105% (inactive)
119% (inactive)

* * *

# Tested on: CCRF-CEM leukemia
# Test Name: NCI-60 one-dose screen, 48 h (100 = growth as untreated, 0 = no growth, -100 = all killed)
# Condition Details: 10 µM unless noted
Compounds without any hit were thinned out: in the full panel of roughly 83,000, 20% have a hit. Activity calls are given as the source filed them. The calls were made as follows: active = growth percent below 10; inactive = the rest.
Assay Metric: growth

Below: 3 compounds and their reported growth.
# Smiles Notation, growth
rows = [
    ("O=C(Cn1c2ccccc2c2ccncc21)N/N=C/c1cc(O)c(O)c(O)c1", "112% (inactive)"),
    ("CCn1c(SC)nnc1-c1cc2c([nH]c3ccccc32)c(-c2cccc(O)c2)n1", "18.4% (inactive)"),
    ("COc1cc(NS(C)(=O)=O)ccc1Cc1c2ccccc2nc2ccccc12", "3.42% (active)"),
]

// batch mode: one growth value per listed entry
1. CN(C)CC/C=C1\c2ccccc2Sc2ccc(Cl)cc21
2. Cc1cccc(Cc2cnc(NC(=O)CCc3ccc(C)o3)s2)c1
3. CN1CCN(CC(=O)N(C)c2ccc(N=C(c3ccccc3)c3c(O)[nH]c4ccc(C#N)cc34)cc2)CC1

Completion:
["59.4% (inactive)", "5.94% (active)", "15.8% (inactive)"]

// batch mode: one growth value per listed entry
1. CCCCn1c(-c2cccc(OC)c2)nc2cc(OC)c(OC)cc2c1=O
2. Cc1ccc(/C=C2/C(=O)Nc3cc(Cl)c(-c4csc(N)n4)cc32)cc1
3. C=C1C(=O)O[C@H]2[C@H]1CC/C(COC(=O)c1ccc(C#N)cc1)=C\CC[C@@]1(C)O[C@@H]21
4. C=C1C(=O)O[C@H]2[C@H]1CC/C(COC(=O)c1ccc3ccccc3c1)=C\CC[C@@]1(C)O[C@@H]21

Completion:
["-22.6% (active)", "43.5% (inactive)", "-25.8% (active)", "-22.9% (active)"]

* * *

# Tested on: RPMI-8226 leukemia
# Test Name: NCI-60 one-dose screen, 48 h
# Condition Details: 10 µM unless noted
This is part of a sample that, as a whole, favours compounds with a hit. Of some 83,000 tested, about 20% had one in any assay. The source made the active and inactive calls. Rule for the calls: active = growth percent below 10; inactive = the rest.
// one of active, inactive, no free text

Worked cases, answers included:
# Molecule, Class Assignment
measured = [
    ("O=C(O)c1ccc(-n2cc(/C=N/Nc3ccc(F)cc3)c(-c3cccc(C(F)(F)F)c3)n2)cc1", "inactive"),
    ("COc1cc(/C=C/C(=O)c2ccc(Oc3ncnc4ccccc34)cc2)cc(OC)c1OC", "inactive"),
]

Prompt: Any idea what this test logged for O=C1c2ccccc2OC=C(c2ccccc2)N1CCCCN1CCCCC1 ?
Completion: inactive

Prompt: Any idea what this test logged for O=C1CCC(=O)N1C1CCCCC1 ?
Completion: inactive

Prompt: Any idea what this test logged for O=C(Nc1ccc(-n2cc(-c3ccncc3)c(-c3ccc(O)c(Cl)c3)n2)cc1)c1cc(Cl)cc(Cl)c1 ?
Completion: active

Prompt: Any idea what this test logged for O=C1C(Cl)=C(Nc2cccc3cc4ccccc4nc23)C(=O)c2ccccc21 ?
Completion: inactive

Prompt: Any idea what this test logged for Cc1cc(SCc2ccc(Cl)cc2Cl)nc(SCc2ccc(Cl)cc2Cl)n1 ?
Completion: inactive

Prompt: Any idea what this test logged for O=C(Nc1ccc(-n2ccc3c(NC(=O)c4ccccc4)nccc32)cc1)c1ccc(Cl)c(C(F)(F)F)c1 ?
Completion: active

Prompt: Any idea what this test logged for CCOC(=O)C1=C(N)Oc2cc(OC)ccc2C1c1ccc(F)c(F)c1 (stereo not given) ?
Completion: active

Prompt: Any idea what this test logged for Fc1ccc(Nc2ncnc3ccc(-c4cn[nH]c4)cc23)cc1Cl ?
Completion: inactive

* * *

# Test system: SR leukemia
# Test Name: NCI-60 one-dose screen, 48 h
# Condition Details: 10 µM unless noted
About 83,000 compounds went through this panel and 20% of them were active in at least one assay; those are over-represented in the sample as a whole. Active and inactive are the calls of the source. How the source made its calls: active means growth percent below 10; inactive means the rest.
// one of y = active, n = inactive, no free text

Worked cases, answers included:
# Compound, Class Assignment
records = [
    ("COc1ccc(C[C@H](N)C(=O)N[C@@H]2[C@@H](CO)OC(n3cnc4c(N(C)C)ncnc43)[C@@H]2O)cc1 (some centres undefined)", "y"),
    ("C/C(=N/O)c1ccc(NC(=O)Cn2nc(-c3ccc(Cl)cc3)nc2N)cc1", "n"),
    ("CC(=O)CC/C=C(\\C)[C@H](O)[C@H](C)C(=O)O[C@H]1C[C@H](C)C=C2C=C[C@@]3(C)O[C@@H](O)CC(=O)[C@]3(C)[C@H]21", "y"),
    ("OCc1cnccc1NC12CC3CC(CC(C3)C1)C2", "n"),
    ("CCCCN(CCCC)c1ccc(C(=N)c2ccc(N(C)C)cc2)cc1", "y"),
    ("O=C1c2ccccc2C(=O)c2c(NCCN=Cc3c(O)ccc4ccccc34)cccc21", "n"),
]

Prompt: Any idea what this test logged for CCOC(=O)C1CSC(C)(C(=O)OCC)N1 (centres undefined) ?
Completion: n

Prompt: Any idea what this test logged for Cc1ccc2c(C3C(C#N)=C(N)Oc4cc5ccccc5cc43)cc(=O)oc2c1 (centres undefined) ?
Completion: n

Prompt: Any idea what this test logged for OC[C@@H](O)C(O[C@@H]1O[C@H](CO)[C@H](O)[C@H](O)[C@H]1O)[C@H](O)[C@@H](O)CO (some centres undefined) ?
Completion: n

* * *

Please provide measured growth for the entries that follow.
# Test system: OVCAR-3 ovarian
# Test Name: NCI-60 one-dose screen, 48 h (100 = growth as untreated, 0 = no growth, -100 = all killed)
# Condition Details: 10 µM unless noted
About 83,000 compounds went through this panel and 20% of them were active in at least one assay; those are over-represented in the sample as a whole.
Give bare numbers, in %.

Below: 5 molecules and their reported growth.
# Molecule, Result
records = [
    ("Cc1ccc[n+](CC(=O)c2cccc3ccccc23)c1", 98.6),
    ("Cc1cn(C2CC(F)C(CO)O2)c(=O)[nH]c1=O (centres undefined)", 137),
    ("O=C(O)c1cc2ccccc2cc1Nc1ccccc1", 108),
    ("NS(=O)(=O)c1ccc(Nc2nc(O)c(/C=C3\\C=Nc4ccccc43)s2)cc1", 102),
    ("O=C(Nc1ccc(-n2cc(-c3ccncc3)c(-c3ccc(O)c(Cl)c3)n2)cc1)c1ccc(Cl)c(Cl)c1", 25.7),
]

// batch mode: one growth value per listed entry
1. CCCCCCCCCCCCCCCCCCNCc1ccc(Cl)cc1
2. COc1cc(C(=O)NNC(=O)c2ccccc2C(=O)O)cc(OC)c1OC
3. CCCCCCCCCCCC(=O)OCCNC(=O)C[n+]1ccccc1
4. COc1cc(-c2nc(SCC(=O)Nc3ccc(C(C)=O)cc3)[nH]c(=O)c2C#N)cc(OC)c1OC
5. CC(=O)N1N=C(CCC(=O)c2nc3ccc([N+](=O)[O-])cc3[nH]2)OC1c1ccc(O)cc1 (centres undefined)
6. O=C(Nc1ccc(-n2cc(-c3ccncc3)c(-c3ccc(O)c(Cl)c3)n2)cc1)Nc1cccc(Cl)c1Cl
7. CC(=O)CC/C=C(\C)[C@H](O)[C@H](C)C(=O)O[C@H]1C[C@H](C)C=C2C=C[C@@]3(C)O[C@@H](O)CC(=O)[C@]3(C)[C@H]21

Completion:
1: -87.9; 2: 29; 3: 115; 4: 0.381; 5: 103; 6: 55.3; 7: -46.4

// batch mode: one growth value per listed entry
1. C=C1C(=O)O[C@H]2[C@H]1CC/C(COC(=O)c1ccc(Br)cc1)=C\CC[C@@]1(C)O[C@@H]21
2. C=C1C(=O)O[C@H]2[C@H]1CC/C(COC(=O)c1cccc3ccccc13)=C\CC[C@@]1(C)O[C@@H]21
3. COc1ccc(C(=O)Cn2cnc3c(Nc4cc(C(=O)Nc5ccc(N6CCN(CCO)CC6)cc5)ccc4C)ncnc32)cc1
4. COc1ccc2c(c1)nnn1c3ncccc3c(N=O)c21
5. O=C(CSc1nnc(-c2cc3c([nH]c4ccccc43)c(-c3cccc(O)c3)n2)n1-c1ccccc1)c1ccccc1

Completion:
1: -81.2; 2: -86.5; 3: 100; 4: -91.3; 5: 40.6

// batch mode: one growth value per listed entry
1. O=C(NCCNc1nccc(-c2c(-c3cccc(O)c3)nc3sccn23)n1)c1cccc(C(F)(F)F)c1
2. COc1ccc(C2CC(c3cc(Cl)c(C)cc3OC)=NN2c2ccc(S(N)(=O)=O)cc2)cc1OC (centres undefined)

Completion:
89.8
103
